tested on: Cryptococcus neoformans (ATCC 208821); assay: Antifungal growth inhibition (MIC, CO-ADD); settings: Cryptococcus neoformans, ATCC208821, C. neoformans; inhibition ≥70%; two replicates per cell
Assay Metric: MIC (µg/mL)
// note: answer is a bare numeric in µg/mL

Compound	Uom	MIC
COC(=O)/C(CCC=C(C)C)=C1\[C@@H](OC(C)=O)C[C@@]2(C)[C@H]1C[C@@H](O)[C@H]1[C@@]3(C)CC[C@H](NCc4ccccc4)[C@@H](C)[C@@H]3CC[C@@]12C [Compound 18]	µg/mL	32

Looking up OC(Cn1cncn1)(Cn1cncn1)c1ccc(F)cc1F [Fluconazole, reference compound] , I see its MIC listed as 8

Kindly note the recorded MIC for COC(=O)/C(CCC=C(C)C)=C1\[C@@H](OC(C)=O)C[C@@]2(C)[C@H]1C[C@@H](O)[C@H]1[C@@]3(C)CC[C@H](NCCN)[C@@H](C)[C@@H]3CC[C@@]12C [Compound 12] , which is 16

Reported MIC ( COC(=O)/C(CCC=C(C)C)=C1\[C@@H](OC(C)=O)C[C@@]2(C)[C@@H]1C[C@@H](O)[C@@H]1[C@@]3(C)CC[C@H](NCCCNCCCCNCCCN)[C@@H](C)C3CC[C@@]12C (some centres unmarked) [Compound 22] ) = 1

Measured values drawn from paper PMC10056636 for this set.
